Molecular target: Sigma non-opioid intracellular receptor 1 (Cavia porcellus, UniProt Q60492)
Sequence (Q60492 whole entry): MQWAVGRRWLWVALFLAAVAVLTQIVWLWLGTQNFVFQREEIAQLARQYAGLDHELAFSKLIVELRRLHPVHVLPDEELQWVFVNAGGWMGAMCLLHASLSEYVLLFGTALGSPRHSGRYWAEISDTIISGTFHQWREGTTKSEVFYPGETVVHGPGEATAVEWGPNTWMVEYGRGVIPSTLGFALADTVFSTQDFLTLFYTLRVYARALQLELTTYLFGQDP
Catalogue of molecules with associated log10(Ki)
Readout: log10(Ki) (log10 of the value in nM)

{"columns": ["Smiles Data", "log10(Ki)"],
 "data": [
  ["c1ccc([C@H]2CCC[C@@H](CCN3CCCC3)O2)cc1", 1.78],
  ["CN(C)CC[C@@H]1CCC[C@H](c2ccccc2)O1", 2.67],
  ["c1ccc([C@H]2CCC[C@@H](CCN3CCN(c4ccccc4)CC3)O2)cc1", 1.32],
  ["c1ccc([C@@H]2CCC[C@H](CCN3CCN(c4ccccc4)CC3)O2)cc1", 1.76],
  ["c1ccc([C@@H]2CCC[C@H](CCNCC3CCCCC3)O2)cc1", 0.38],
  ["c1ccc([C@@H]2CCC[C@H](CCN3CCCC3)O2)cc1", 1.49],
  ["c1ccc(CCCCNCC[C@@H]2CCC[C@H](c3ccccc3)O2)cc1", 1.18],
  ["c1ccc([C@H]2CCC[C@@H](CCNCC3CCCCC3)O2)cc1", -0.02],
  ["c1ccc(CCCCNCC[C@H]2CCC[C@@H](c3ccccc3)O2)cc1", 1.46],
  ["c1ccc(CNCC[C@H]2CCC[C@@H](c3ccccc3)O2)cc1", 0.73]
]}
